The measurements presented in this section are drawn from patent US20030232009A1.

Target: T1, Macaque 46 mer peptide (RB exon of macaque CD45RB) (macaque)
T1 construct: synthetic peptide
T1 peptide: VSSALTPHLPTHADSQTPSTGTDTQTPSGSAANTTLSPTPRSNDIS
Assay: recombinant antibody on peptide
measurementName: binding result

{"binder": "AB-CD45RB-XG2-556 (antibody, human IgG2, V domains shown, recombinant human IgG2 kappa; also called sc556) VH: QVQLQESGPGLVKPSETLSLTCTVSGGSISGYYWSWIRQPAGKGLEWIGRIHTTGKTAYNPSLKSRVIMSVDTSKNLFSLKLTSVTAADTAVYYCARDYDFLTGYFDYWGQGTLVTVSS VL: DVVMTQSPLSLPVTLGQPASISCRSSQSLVYSDGNTYLNWFQQRPGHSPRRLIYKVSNWDSGVPDRFSGSGSGTDFTLKISRVEAEDVGIYYCMQGTHWPPTFGQGTRVEIK", "binding result": "no binding"}
{"binder": "AB-CD45RB-XG2-026 (antibody, human IgG2, V domains shown, recombinant human IgG2 kappa; also called sc026; 1G10 (sc026)) VH: QVQLVESGGGVVQPGRSLRLSCAASGFTFSNYGMHWVRQAPGKGLEWVAVIWYDGSNKYYADSVKGRFTISRDNSKNTLYLQMNSLRAEDTAVYYCARGGGDFDYWGQGTLVTVSS VL: EIVMTQSPATLSVSPGERVTLSCRASQTISGSYLAWYQQKPGQAPRLLIYGAFTRATGIPARFSGSGSGTEFTLTISSLQSEDFAVYYCQQYNNWPPLTFGGGTRVEIK", "binding result": "no binding"}
{"binder": "AB-CD45RB-XG2-487 (antibody, human IgG2, V domains shown, recombinant human IgG2 kappa; also called sc487) VH: QVQLVESGGGVVQPGRSLRVSCEASGFTFSNYGMHWVRQAPGKGLEWVAVIWYDGSKKFYADSVKGRFTISRDNSQNTLSLQMSSLRAEDTAVYYCARGGGDFDFWGQGTLVTVSS VL: KIVMTQSPATLSVSPGERATLSCRASQSVSGNYLAWYQQRPGQAPRLLIYGASTRATGIPARFSGSGSGTEFTLTISSLQSEDFAVYYCQQYGKWPPLTFGGGTKVEIK", "binding result": "no binding"}
{"binder": "AB-CD45RB-XG2-446 (antibody, human IgG2, V domains shown, recombinant human IgG2 kappa; also called sc446) VH: QVQLVESGGGVVQPGKSLRLSCAASGFTFRNYGMHWVRQAPGKGLEWVAVIWYDGSKKFYADSVKGRFTISRDNSKNTLNLQMNSLRAEDTAVYYCVRGGGDFDYWGQGTLVTVSS VL: EIVMTQSPATLSVSLGERATLSCRASQNISGNYLAWYQQRPGQAPRRLIYSASSRATGIPDRFSGSGSGTEFTLTISSLQSEDFAVYYCQQYNNWPPLTFGGGTKVEMK", "binding result": "no binding"}

input: Need binding result, item AB-CD45RB-XG2-648 (antibody, human IgG2, V domains shown, recombinant human IgG2 kappa; also called sc648) VH: QVQLVESGGGLVKPGGSLRLSCAASGFTFNVYYMNWIRQAPGKGLEWVSYISTSSSAIYYADSVKGRFTISRDNAKNSLYLQMNSLRAEDTAVYYCARRTGSTTVFDYWGQGTLVTVSS VL: EIVLTQSPATLSVSPGERATLSCRASQSINNNLAWYQQKPGQAPRLLIYGASTRATGIPAKFSGSGSGTEFTLTISSLQSENFAVYYCQQYNKWPLTFGGGTKVEIK
output: no binding
